# conditions: 318.15 K; 101.33 kPa; Liquid
// mass density lookup, one value per entry
Only the number, expressed in kg/m3, is required.

- molecule: "CCC(O)CO (stereo unspecified) [1,2-butanediol]"
  reported endpoint: "mass density"
  reported result: 983.93
- molecule: "CC(O)CO (stereo unspecified) [1,2-propanediol]"
  reported endpoint: "mass density"
  reported result: 1017.32
- molecule: "CC(O)CCO (stereo unspecified) [1,3-butanediol]"
  reported endpoint: "mass density"
  reported result: 988.7
- molecule: "CC(O)C(C)O (stereo unspecified) [2,3-butanediol]"
  reported endpoint: "mass density"
  reported result: 984.13
- molecule: "OCCCCO [1,4-butanediol]"
  reported endpoint: "mass density"
  reported result: 1000.76

API: the following record is the query input.
Fill in: mass density of OCCCO [propan-1,3-diol] is ___
1037.37
